- TEST TARGET: Follistatin (Homo sapiens)
- METHOD: follistatin binders on small-molecule microarrays, primary screen, biochemical, small-molecule microarray, 635/667 nm fluorescence (AID 1132)
- CONDITION LABEL: FST binding, 635 nm fluorescence, higher = more signal

| COMPOUND | composite z-score |
| --- | --- |
| COCCOC(=O)N1C(=O)[C@@]2(c3cc(C#CCC(C(=O)OC)C(=O)OC)ccc31)[C@H](C(=O)NC[C@H](O)c1ccccc1)[C@H]1C(=O)O[C@H](c3ccccc3)[C@H](c3ccccc3)N1[C@@H]2c1ccc(OCCO)cc1 | 1.4 |
| CC(C)CNC(=O)[C@@]1(c2ccc([N+](=O)[O-])cc2)CC(=O)N(C2CCCCC2)[C@@H]1c1ccc(CO)cc1 | 0.536 |
| CN(C)C(=O)[C@]1(CCS(=O)(=O)c2ccccc2)N=C(c2ccc(OCCCO)cc2)O[C@@H]1c1ccccc1 | 1.29 |
| O=C1O[C@H](c2ccccc2)[C@H](c2ccccc2)N2[C@H]1[C@@H](C(=O)N1CCCCCCC1)[C@]1(C(=O)Nc3ccc(C#CC4(O)CCCCCC4)cc31)[C@H]2c1ccccc1OCCO | 1.62 |
| C[C@@H]1ON(c2ccc(I)cc2)[C@H](c2ccc(OC(=O)OC(C)(C)C)cc2)[C@H]1C(=O)N1C(=O)OC[C@H]1Cc1ccccc1 | 0.61 |
| COC(=O)C1=CC(CCCO)=CC(C)N(Cc2cccc(OC(F)(F)F)c2)C=C1C(=O)OC (stereo not given) | -0.278 |
| COC(=O)c1c2oc(c1C(=O)OC)C(=O)N1CCC[C@H]1Cn1nncc1CN(Cc1ccccc1)C(=O)N[C@H](CO)CC2 | 0.423 |
| CN(C)C(=O)[C@@]1(Cc2ccccc2)COC(c2ccc(OCCCO)cc2)=N1 | -0.13 |
| CC(C)C[C@@H]1NC(=O)[C@H]2C[C@@H](C(=O)NCCCCCN)[C@@H](c3cccc(OCCO)c3)N2C1=O | -0.214 |
| CCOC(=O)C1=CC[C@@H](c2ccccc2)N(S(=O)(=O)c2ccc(C)cc2)[C@H]1c1cccc(OC)c1 | 0.76 |
| CC(C)C[C@@H]1NC(=O)[C@@H]2C[C@H](C(=O)NCCCCCC[N+](C)(C)C)[C@H](c3cccc(OCCO)c3)N2C1=O | 0.349 |
| O=C(CS)NCCCCCCNC(=O)[C@@H]1C[C@@H]2C(=O)NCC(=O)N2[C@@H]1c1ccc(O)cc1 | 0.526 |
| Cc1nc2cc(Br)ccc2c(=O)n1Cc1cccc(O)c1 | 1.38 |
| COCC1C2CC[C@H]3C(OCc4ccc(OC)cc4)OC[C@]4(C)[C@H]3C2=C(CN4C(=O)OC(C)(C)C)[C@H](C)C1COC (stereo not given in full) | 0.916 |
| COC(=O)[C@@]1(Cc2ccccc2)[C@H]2c3cc(C(=O)N4CCCC4)n(CCSCCO)c3C[C@H]2CN1C(=O)c1ccccc1 | 0.337 |

====

- METHOD: COS7 lysate on small-molecule microarray, probe aHis, 635 nm (AID 1123);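 further: z-score combines 667nm fluorescence intensity with signal-to-noise per printed compound spot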
- CONDITION LABEL: COS7 cell lysate, fluorescence, higher = more signal

| COMPOUND | composite z-score |
| --- | --- |
| Cc1ccc(C(C)CC(O)C2C=CC3C(=O)N(c4ccccc4)C(=O)C3N2Nc2ccc(C#N)cc2)o1 (centres undefined) | 3.21 |
| C=C(C(=O)CC[C@H](OC(=O)c1ccccc1-c1ccccc1C(=O)O)c1ccccc1OCCO)C(C)C | 0.559 |
| CCOC(=O)C[C@H]1[C@H](OC(=O)c2ccc(-c3ccccc3)cc2)[C@@H](NC(=O)CC(C)C)c2cc(OCCCO)ccc2N1C(=O)c1ccccc1 | 0.806 |
| CC(C)C[C@@H]1NC(=O)[C@@]23C(=O)N[C@@H](Cc4ccccc4)C2[C@H](C)[C@@]2(C)O[C@H]2C3/C=C/C/C=C\CNC(=O)[C@@H](C)NC1=O (some centres undefined) | -0.128 |
| C=CCN1C(=O)[C@@]2(O[C@@H](CCO)[C@H]([Si](C)(C)c3ccc(OC)cc3)[C@H]2C)c2cc(N3CCOC3=O)ccc21 | -0.617 |
| COc1ccc(C(=O)Nc2cccc(CN3C(=O)[C@@]4(O[C@@H](CC(=O)N(CCO)Cc5ccccc5)[C@H]([Si](C)(C)c5ccc(OC)cc5)[C@H]4C)c4ccccc43)c2)cc1 | 1.56 |
| COC(=O)[C@@]1(Cc2ccccc2CN=[N+]=[N-])N=C(c2ccc(OCCCO)cc2)O[C@H]1c1ccccc1CN=[N+]=[N-] | 1.77 |
| O=C(CS)NCCCCCNC(=O)[C@@H]1C[C@@H]2C(=O)N[C@@H](Cc3ccccc3)C(=O)N2[C@@H]1c1cccc(OCCO)c1 | 2.7 |
| CCOC(=O)C1=CC[C@@H](c2ccccc2)N(S(=O)(=O)c2ccc(C)cc2)[C@H]1C=Cc1ccccc1 | 1.03 |
| C=CCC(OC(C)=O)[C@@H]1[C@@H](N(Cc2cc3ccccc3o2)C(=O)c2ccc(-c3ccccc3)cc2)c2cc(OCCCO)ccc2N1C(=O)Cc1ccc(OC)cc1 (some centres undefined) | 0.401 |
| O=C(NCCN1CCOCC1)[C@@H]1c2ccccc2C(=O)N(Cc2ccccc2)[C@H]1c1ccc(CO)cc1 | 0.392 |
| NCCCCCNC(=O)[C@@H]1C[C@@H]2C(=O)N3CCC[C@H]3C(=O)N2[C@@H]1c1ccc(O)cc1 | 1.19 |
| CCOC(=O)C[C@H]1[C@H](OC(=O)c2ccc(C(=O)c3ccccc3)cc2)[C@@H](NC(=O)CC(C)C)c2cc(OCCCO)ccc2N1C(=O)Cc1ccc(OC)cc1 | 1.26 |
| Cc1nc2cc(Br)ccc2c(=O)n1Cc1cccc(O)c1 | 1.28 |
